- systemUnderTest: Luciferin 4-monooxygenase (Photinus pyralis) (UniProt P08659)
- runDescription: Primary firefly luciferase (FLuc) qHTS assay for identification of artifact compounds. (AID 1845220); also: nearly all actives have a fitted effect of over 60% in size
- measurementParameters: purified firefly luciferase, luminescence, 5 min; series mostly up to 54.1 µM
Calls of active or inactive are those of the source. Calls follow the shape of the dose curve; as a rule, active = well fitted inhibition curve with a large enough effect; inconclusive = small, poorly fitted or top-dose-only effect; inactive = flat fitted curve, though single readings scatter.
propertyMeasured: activity change, negative = inhibition

Worked set:
molecule | propertyMeasured | measured
CCCCOC(=O)NC(=O)C1c2ccccc2Oc2ccccc21 | activity change, negative = inhibition | inactive
CCC(CC)C(=O)Nc1sc2c(c1C#N)CCC(C(C)(C)CC)C2 (centres undefined) | activity change, negative = inhibition | inactive
COC(=O)C12CCC(C)C(C)C1C1=CCC3C4(C)CCC(OC(C)=O)C(C)(C)C4CCC3(C)C1(C)CC2 (centres undefined) | activity change, negative = inhibition | inactive
Cc1[nH]c2ccccc2c1CCNC(=O)c1ccccc1F | activity change, negative = inhibition | inactive

Return reported activity change, negative = inhibition values for all items listed beneath this line.
1. CC(=O)N1CCN(C(=O)Cc2ccc(Nc3ncc(F)c(Nc4ccc(C(=O)Nc5ccccc5Cl)cc4)n3)cc2)CC1
2. CC1OC(OC2CCC3(C)C(CCC4(C)C3CC=C3C5CC(C)(C)CCC5(C(=O)OC5OC(CO)C(O)C(O)C5O)CCC34C(=O)O)C2(C)C)C(O)C(O)C1O (centres undefined)
3. COC(=O)c1ccnc(-c2cc(C(=O)NCCc3ccccc3)ccn2)c1
4. Fc1ccc2nc(CCC#Cc3ccccn3)cn2c1
5. OC[C@H]1O[C@@H](O[C@H]2[C@H](OCc3ccccc3)O[C@H](CO[C@@H]3OC[C@@H](O)[C@H](O)[C@H]3O)[C@@H](O)[C@@H]2O)[C@H](O)[C@@H](O)[C@@H]1O

RESULT:
1. inactive
2. inactive
3. inactive
4. inactive
5. inactive
